Molecular target: Biotinylated KRAS G12C protein (Homo sapiens, UniProt P01116, C118S/C51S/C80L/G12C)
Construct: 183 amino acids; biotin on K10
Sequence (P01116 with tags, fused parts or gaps isoform P01116-2 G12C/C51S/C80L/C118S): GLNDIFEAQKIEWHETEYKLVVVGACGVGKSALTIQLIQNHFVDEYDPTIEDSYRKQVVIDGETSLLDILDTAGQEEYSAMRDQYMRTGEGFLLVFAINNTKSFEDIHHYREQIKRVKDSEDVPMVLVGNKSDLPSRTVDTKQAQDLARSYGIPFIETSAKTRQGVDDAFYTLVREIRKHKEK
Assay: SOS-catalyzed nucleotide exchange assay
Format: biochemical
Conditions: 10,000 nM; 60 minutes of preincubation prior to addition of SOS
inhibition at 10 µM listing for selected molecules.
MEASURED METRIC: inhibition at 10 µM (%)

- MOLECULE: "C=CC(=O)N1CCN(c2cc(C(=O)NCC(C)(C)CN(C)C)nc3c2CCN(c2cccc4cccc(C)c24)C3)CC1"
  UNIT NAME: "%"
  TEST VALUE: 37
- MOLECULE: "C=CC(=O)N1CCN(c2cc(C(=O)N(C)C3CCN(C)C3)nc3c2CCN(c2cccc4cccc(C)c24)C3)CC1 (racemic)"
  UNIT NAME: "%"
  TEST VALUE: 36
- MOLECULE: "C=CC(=O)N1CCN(c2cc(C(=O)NC(C)(C)CN(C)C)nc3c2CCN(c2cccc4cccc(C)c24)C3)CC1"
  UNIT NAME: "%"
  TEST VALUE: 16
- MOLECULE: "C=CC(=O)N1CCN(c2cc(C(=O)NC(CC(C)C)CN(C)C)nc3c2CCN(c2cccc4cccc(C)c24)C3)CC1 (racemic)"
  UNIT NAME: "%"
  TEST VALUE: 30
- MOLECULE: "C=CC(=O)N1CCN(c2cc(C(=O)N[C@@H]3COC[C@@H]3N3CCOCC3)nc3c2CCN(c2cccc4cccc(C)c24)C3)CC1 (racemic)"
  UNIT NAME: "%"
  TEST VALUE: 29
